target: human CFTR (Homo sapiens); construct: host or cells: CHO; test: IonWorks Barracuda electrophysiology, CFTR chloride current in CHO cells; format: cell-based; conditions: 20 μM forskolin, IonWorks Barracuda; read-out: CFTR Chloride Current (IC50)
Measured metric: IC50

The cases that follow already have their IC50 on record.
[[record]]
compound = "N#Cc1c(C(F)(F)F)cc(O)n2c1nc1ccccc12"
measured_metric = "IC50"
result = "> 30 µM"

[[record]]
compound = "COc1cc([N+](=O)[O-])ccc1NC(=O)c1cc(Cl)c2ccccc2c1O"
measured_metric = "IC50"
result = "> 30 µM"


// for each compound below, give its IC50
1. CCc1c(C)nc(SCC(=O)Nc2nc(-c3ccc(OC)cc3)cs2)[nH]c1=O
2. O=C(Nc1ccc([N+](=O)[O-])cc1Cl)c1cc(Cl)ccc1O [Niclosamide]
3. O=C(O)c1cccnc1Nc1cccc(C(F)(F)F)c1
4. CC(C)(C)C1CCc2c(sc(NC(=O)c3ccco3)c2C(=O)O)C1 (stereo not shown)
5. COc1cc(Nc2ccc([N+](=O)[O-])cc2C(=O)O)cc2ccccc12

Out:
1: > 30 µM; 2: > 30 µM; 3: > 30 µM; 4: 10.1 µM; 5: 19 µM

---

Provide the recorded IC50 for the entries that follow.
molecular target: TMEM16A (acd) (Homo sapiens, UniProt Q5XXA6); assay: QPatch whole-cell electrophysiology, HEK293 TMEM16A (acd); assay type: cell-based; settings: QPatch, outward current at +100 mV, 170 nM free intracellular calcium, ~60 s per concentration; read-out: TMEM16A Chloride Current (IC50)
Sequence (Q5XXA6 whole entry): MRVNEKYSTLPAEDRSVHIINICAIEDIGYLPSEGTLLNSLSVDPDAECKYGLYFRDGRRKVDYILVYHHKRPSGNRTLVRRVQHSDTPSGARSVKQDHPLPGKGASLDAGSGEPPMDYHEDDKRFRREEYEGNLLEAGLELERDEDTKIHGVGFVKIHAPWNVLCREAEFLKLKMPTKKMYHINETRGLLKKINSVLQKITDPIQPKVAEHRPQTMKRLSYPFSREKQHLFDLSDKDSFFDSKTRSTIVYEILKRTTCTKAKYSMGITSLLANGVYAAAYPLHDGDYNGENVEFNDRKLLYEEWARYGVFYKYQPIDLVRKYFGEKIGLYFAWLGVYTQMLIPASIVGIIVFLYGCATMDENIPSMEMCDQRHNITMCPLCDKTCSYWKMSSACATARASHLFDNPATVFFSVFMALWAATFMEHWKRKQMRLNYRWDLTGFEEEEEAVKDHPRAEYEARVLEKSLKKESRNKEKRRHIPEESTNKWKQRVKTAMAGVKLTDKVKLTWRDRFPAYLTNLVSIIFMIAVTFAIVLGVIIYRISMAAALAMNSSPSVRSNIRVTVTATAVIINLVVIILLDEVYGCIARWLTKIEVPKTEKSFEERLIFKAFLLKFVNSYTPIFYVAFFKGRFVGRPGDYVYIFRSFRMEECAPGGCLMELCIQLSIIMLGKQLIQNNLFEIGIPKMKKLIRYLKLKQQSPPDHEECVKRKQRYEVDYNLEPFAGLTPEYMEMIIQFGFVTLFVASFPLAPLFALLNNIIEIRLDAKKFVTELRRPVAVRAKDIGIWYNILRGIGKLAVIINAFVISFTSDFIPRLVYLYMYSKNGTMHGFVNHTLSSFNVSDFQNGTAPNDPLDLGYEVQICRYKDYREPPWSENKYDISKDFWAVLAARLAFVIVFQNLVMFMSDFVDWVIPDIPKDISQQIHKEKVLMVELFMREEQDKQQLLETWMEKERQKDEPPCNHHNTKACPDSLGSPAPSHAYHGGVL
One number for each entry, in µM.

[[record]]
molecule = "O=C(Nc1ncc([N+](=O)[O-])s1)c1ccccc1O [Tizoxanide]"
result_number = 4.42

[[record]]
molecule = "O=C(Nc1ncc([N+](=O)[O-])s1)c1cccs1"
result_number = 4.69

[[record]]
molecule = "O=C(Nc1ccc([N+](=O)[O-])cc1Cl)c1cc(Cl)ccc1O [Niclosamide]"
result_number = 2.37

[[record]]
molecule = "O=C(O)c1cccnc1Nc1cccc(C(F)(F)F)c1"
result_number = 8.54

[[record]]
molecule = "Oc1ccc(Cl)cc1Cc1cc(Cl)ccc1O"
result_number = 4.66

[[record]]
molecule = "O=C(Nc1ccc(Cl)cc1)c1cc(Cl)ccc1O"
result_number = 2.26


Batch request: IC50 per item, same order as input.
1. O=C(Nc1ccc([N+](=O)[O-])cc1)c1cc(Cl)c2ccccc2c1O
2. COc1cc(Nc2ccc([N+](=O)[O-])cc2C(=O)O)cc2ccccc12

Out:
1: 0.61; 2: 13.6

---

target: human CFTR (Homo sapiens, UniProt P13569); construct: host or cells: CHO; assay: IonWorks Barracuda electrophysiology, CFTR chloride current in CHO cells; type: cell-based; settings: IonWorks Barracuda
Sequence (P13569 whole entry): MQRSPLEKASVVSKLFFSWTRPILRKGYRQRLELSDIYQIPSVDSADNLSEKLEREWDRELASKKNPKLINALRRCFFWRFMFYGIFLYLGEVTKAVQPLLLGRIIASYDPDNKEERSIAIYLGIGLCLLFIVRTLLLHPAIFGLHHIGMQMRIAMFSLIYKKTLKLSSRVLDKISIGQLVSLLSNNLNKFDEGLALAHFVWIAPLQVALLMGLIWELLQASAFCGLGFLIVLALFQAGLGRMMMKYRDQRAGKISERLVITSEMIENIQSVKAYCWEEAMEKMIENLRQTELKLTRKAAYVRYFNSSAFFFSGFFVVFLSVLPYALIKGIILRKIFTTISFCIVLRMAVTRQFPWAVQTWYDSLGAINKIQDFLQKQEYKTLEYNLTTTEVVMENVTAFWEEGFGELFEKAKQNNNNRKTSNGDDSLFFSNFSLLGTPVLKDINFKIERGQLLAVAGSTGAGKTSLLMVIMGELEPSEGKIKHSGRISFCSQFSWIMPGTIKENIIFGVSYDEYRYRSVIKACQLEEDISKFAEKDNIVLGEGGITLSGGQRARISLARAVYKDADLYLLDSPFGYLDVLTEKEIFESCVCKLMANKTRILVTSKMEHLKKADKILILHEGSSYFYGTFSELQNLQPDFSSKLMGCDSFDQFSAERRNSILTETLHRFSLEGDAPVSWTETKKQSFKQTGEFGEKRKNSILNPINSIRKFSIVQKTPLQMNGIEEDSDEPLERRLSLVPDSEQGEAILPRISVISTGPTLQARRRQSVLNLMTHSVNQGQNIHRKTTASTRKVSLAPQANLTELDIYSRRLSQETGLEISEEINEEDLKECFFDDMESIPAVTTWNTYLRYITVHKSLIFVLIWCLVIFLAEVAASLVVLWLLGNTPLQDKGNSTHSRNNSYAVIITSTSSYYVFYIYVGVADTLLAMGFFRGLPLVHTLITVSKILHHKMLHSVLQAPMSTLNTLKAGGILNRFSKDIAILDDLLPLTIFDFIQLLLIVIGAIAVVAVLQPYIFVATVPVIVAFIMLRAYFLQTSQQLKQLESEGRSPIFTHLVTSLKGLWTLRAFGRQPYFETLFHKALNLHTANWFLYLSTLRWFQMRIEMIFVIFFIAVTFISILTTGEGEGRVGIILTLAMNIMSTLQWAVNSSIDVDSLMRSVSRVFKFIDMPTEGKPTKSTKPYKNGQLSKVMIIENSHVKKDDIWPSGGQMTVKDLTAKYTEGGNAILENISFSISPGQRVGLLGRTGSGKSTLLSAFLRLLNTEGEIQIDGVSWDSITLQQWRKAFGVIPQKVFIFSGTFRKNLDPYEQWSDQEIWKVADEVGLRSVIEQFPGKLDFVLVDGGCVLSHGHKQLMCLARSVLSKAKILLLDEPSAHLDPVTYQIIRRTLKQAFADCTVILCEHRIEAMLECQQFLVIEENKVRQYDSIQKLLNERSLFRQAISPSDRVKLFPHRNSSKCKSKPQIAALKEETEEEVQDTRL
Measured metric: effect on cAMP-induced CFTR chloride current

Some solved entries appear below for comparison.
[[record]]
compound = "COc1cc([N+](=O)[O-])ccc1NC(=O)c1cc(Cl)c2ccccc2c1O"
result = "inactive"

[[record]]
compound = "CCc1oc2ccccc2c1C(=O)c1cc(Br)c(O)c(Br)c1"
result = "reduced"

[[record]]
compound = "COc1cc(Nc2ccc([N+](=O)[O-])cc2C(=O)O)cc2ccccc12"
result = "reduced"

[[record]]
compound = "O=C(Nc1ccc([N+](=O)[O-])cc1Cl)c1cc(Cl)ccc1O [Niclosamide]"
result = "inactive"


Quick one: give me effect on cAMP-induced CFTR chloride current for each item below, same order please.
1. N#Cc1c(C(F)(F)F)cc(O)n2c1nc1ccccc12
2. O=C(Nc1ccc([N+](=O)[O-])cc1)c1cc(Cl)ccc1O
3. CC(C)(C)C1CCc2c(sc(NC(=O)c3ccco3)c2C(=O)O)C1 (stereo not shown)

Out:
inactive
inactive
reduced

The measured values listed here are drawn from paper PMC6382696.
